Hey, just so you know, these numbers are from patent US20240076386A1.

Molecular target: T1, human E-selectin, cell-surface expressed (human, UniProt P16581 22-610)
T1 sequence: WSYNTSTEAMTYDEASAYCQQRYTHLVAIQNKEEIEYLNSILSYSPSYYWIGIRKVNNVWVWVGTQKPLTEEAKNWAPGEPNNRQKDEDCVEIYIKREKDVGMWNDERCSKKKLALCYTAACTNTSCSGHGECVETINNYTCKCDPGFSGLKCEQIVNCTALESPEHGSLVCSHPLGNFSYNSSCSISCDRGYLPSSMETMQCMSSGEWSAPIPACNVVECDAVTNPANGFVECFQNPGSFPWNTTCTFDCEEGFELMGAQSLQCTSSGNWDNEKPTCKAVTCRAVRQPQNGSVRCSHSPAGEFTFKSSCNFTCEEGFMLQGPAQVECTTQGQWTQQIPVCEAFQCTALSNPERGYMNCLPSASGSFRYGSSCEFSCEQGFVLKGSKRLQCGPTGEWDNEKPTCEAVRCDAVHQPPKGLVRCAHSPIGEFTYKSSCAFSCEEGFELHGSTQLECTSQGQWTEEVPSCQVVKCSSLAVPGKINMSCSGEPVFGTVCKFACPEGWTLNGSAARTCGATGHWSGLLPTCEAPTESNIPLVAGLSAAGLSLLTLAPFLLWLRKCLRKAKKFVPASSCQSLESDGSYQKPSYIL
Assay: cell-based or functional assay
# static neutralization of HL-60 cell adhesion, CHO-human E-selectin cells-IC50 values compiled below
assay_readout: static neutralization of HL-60 cell adhesion, CHO-human E-selectin cells-IC50 (nM)

binder	experimental_result
optimized anti-E-selectin antibody 1282 (antibody, human IgG1, kappa, V domains shown, effector-null human IgG1, kappa) VH: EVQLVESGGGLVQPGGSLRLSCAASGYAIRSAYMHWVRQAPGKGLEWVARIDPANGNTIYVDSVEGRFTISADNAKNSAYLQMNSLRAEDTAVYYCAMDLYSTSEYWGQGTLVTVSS VL: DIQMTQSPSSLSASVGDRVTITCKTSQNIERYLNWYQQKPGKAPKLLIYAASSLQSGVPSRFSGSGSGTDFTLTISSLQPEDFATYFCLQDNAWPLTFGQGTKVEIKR	3.4
anti-E-selectin antibody 0164 chimera (antibody, human IgG1, kappa, V domains shown, rat VH/VL on effector-null human IgG1 and human kappa) VH: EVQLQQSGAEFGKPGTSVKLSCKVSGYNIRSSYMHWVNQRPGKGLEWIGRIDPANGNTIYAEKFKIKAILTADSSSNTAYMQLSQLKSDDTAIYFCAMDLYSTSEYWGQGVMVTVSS VL: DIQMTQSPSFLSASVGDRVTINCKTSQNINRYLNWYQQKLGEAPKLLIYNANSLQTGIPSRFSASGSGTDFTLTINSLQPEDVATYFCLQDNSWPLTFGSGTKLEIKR	4.4
optimized anti-E-selectin antibody 1444 (antibody, human IgG1, kappa, V domains shown, effector-null human IgG1, kappa) VH: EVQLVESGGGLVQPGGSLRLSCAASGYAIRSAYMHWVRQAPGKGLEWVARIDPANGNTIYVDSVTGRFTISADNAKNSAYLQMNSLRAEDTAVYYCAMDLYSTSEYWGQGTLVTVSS VL: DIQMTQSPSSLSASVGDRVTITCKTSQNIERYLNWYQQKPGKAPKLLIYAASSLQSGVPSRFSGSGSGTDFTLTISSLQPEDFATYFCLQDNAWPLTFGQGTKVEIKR	4.7
optimized anti-E-selectin antibody 1284 (antibody, human IgG1, kappa, V domains shown, effector-null human IgG1, kappa) VH: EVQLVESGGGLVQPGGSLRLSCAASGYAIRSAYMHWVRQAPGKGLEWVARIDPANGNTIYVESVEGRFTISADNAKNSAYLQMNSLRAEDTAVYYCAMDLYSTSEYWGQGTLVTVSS VL: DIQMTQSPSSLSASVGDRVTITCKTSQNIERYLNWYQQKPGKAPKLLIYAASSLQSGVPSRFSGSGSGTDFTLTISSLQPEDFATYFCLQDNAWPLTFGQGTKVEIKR	4.4
optimized anti-E-selectin antibody 1448 (antibody, human IgG1, kappa, V domains shown, effector-null human IgG1, kappa) VH: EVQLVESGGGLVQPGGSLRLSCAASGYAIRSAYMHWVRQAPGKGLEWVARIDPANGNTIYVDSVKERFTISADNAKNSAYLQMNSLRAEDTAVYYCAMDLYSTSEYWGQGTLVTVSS VL: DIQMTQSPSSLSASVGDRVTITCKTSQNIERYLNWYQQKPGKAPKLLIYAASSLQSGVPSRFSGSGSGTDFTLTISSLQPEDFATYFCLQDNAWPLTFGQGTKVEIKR	6.2
